- Tested on: Pseudomonas aeruginosa
- MEASUREMENT_PROTOCOL: Antimicrobial activity against Pseudomonas aeruginosa 5482 assessed as reduction in bacterial growth after 20 hrs […]
- Format: functional
- CONDITION_LABEL: Pseudomonas aeruginosa, 5482, 20 h
OBSERVABLE: MIC (µM)
One number for each entry, in µM.

Some solved cases for reference:
[[record]]
substance = "H-GIMSSLMKKLAKHIAK-NH2"
measured_number = 7.9

[[record]]
substance = "H-GIMSSLMKKLKKHIAK-NH2"
measured_number = 6.4

[[record]]
substance = "H-GIWSSLLKKLKKIIAK-NH2"
measured_number = 6.3

[[record]]
substance = "H-GIMSSLMKKLAKIIAK-NH2"
measured_number = 4.5


# batch size: 7; output MIC per entry
1. H-GIMSSLMKKLKAHIAK-NH2
2. H-GIMSSLMKKLKKIIKK-NH2
3. H-GILKSLLKKLKKIIAK-NH2
4. H-GILSSWLKKLKKIIAK-NH2
5. H-GILSKLLKKLKKIIAK-NH2
6. H-GIMSSLMKKLAAHIKK-NH2
7. H-GILSSLLKKLKKWIAK-NH2

26
7.1
5
4
4.5
23
8

# batch size: 4; output MIC per entry
1. H-GILSSLWKKLKKIIAK-NH2
2. H-GILSSLWKKPKKIIAK-NH2
3. H-GILSSLLKKLKKIIAK-NH2
4. H-GILSSLLKKWKKIIAK-NH2

5.3
98
5
5

* * *

- Tested on: Staphylococcus aureus
- MEASUREMENT_PROTOCOL: Antimicrobial activity against Staphylococcus aureus clinical isolates from university hospital in Motol assessed as reduction in bacterial growth after 20 hrs by drop diffusion test
- Assay type: functional
OBSERVABLE: MIC

Some solved cases for reference:
[[record]]
substance = "H-GIMSSLMKKLAKIIAK-NH2"
observable = "MIC"
result = "10 µM"

[[record]]
substance = "H-GIMSSLMKKLAAIIAK-NH2"
observable = "MIC"
result = "10 µM"

[[record]]
substance = "H-GIMSSLMKKLAKHIAK-NH2"
observable = "MIC"
result = "63 µM"

[[record]]
substance = "H-GIMISLMKKLAAHIAK-NH2"
observable = "MIC"
result = "65 µM"

[[record]]
substance = "H-GIMSSLMKKLKKIIAK-NH2"
observable = "MIC"
result = "23 µM"

[[record]]
substance = "H-GILSSLLKKWKKIIAK-NH2"
observable = "MIC"
result = "20 µM"


# batch size: 6; output MIC per entry
1. H-KILSSLLKKLKKIIAK-NH2
2. H-GIMSSLMKKLKKIIKK-NH2
3. H-GILSKLLKKLKKIIAK-NH2
4. H-GILSSLWKKPKKIIAK-NH2
5. H-GIMSSLMKKLKKHIAK-NH2
6. H-GIMSSLMKKLAAHIKK-NH2

1: 10 µM; 2: 65 µM; 3: 10 µM; 4: > 100 µM; 5: > 100 µM; 6: 90 µM

# batch size: 5; output MIC per entry
1. H-GKLSSLWKKLKKIIAK-NH2
2. H-GILSSLLKKLKKIIAK-NH2
3. H-GILSSLLKKLKKWIAK-NH2
4. H-GILSSLWKKLKKIIAK-NH2
5. H-GIWSSLLKKLKKIIAK-NH2

27 µM
5 µM
4 µM
5 µM
5.3 µM

# batch size: 6; output MIC per entry
1. H-GILKSLLKKLKKIIAK-NH2
2. H-GIMSSLMKKLAAHIAK-NH2
3. H-GIMSSLMKKLAKIIKK-NH2
4. H-GILSSLWKKLKKWIAK-NH2
5. H-GILSSWLKKLKKIIAK-NH2
6. H-GIMSSLMKKLKAHIAK-NH2

["10 µM", "64 µM", "17 µM", "2 µM", "16 µM", "> 100 µM"]

* * *

- System: Staphylococcus aureus
- MEASUREMENT_PROTOCOL: Antimicrobial activity against Staphylococcus aureus clinical isolates assessed as FIC index in presence of amoxicillin after 20 hrs by drop diffusion test
- Type: functional
Non-standard residues stand in square brackets, D forms with d. Residues, ends and D or L forms follow the SMILES beside them. ξ: configuration not given here. ξNle = CCCCC(N)C(=O)O
Record form. Attribute: fractional inhibitory concentration index (FICI). Fill in for each entry.

[[record]]
molecule = "CC[C@@H](C)[C@@H](NC(=O)CN)C(=O)N[C@H](CC(C)C)C(=O)N[C@H](CO)C(=O)N[C@H](CO)C(=O)N[C@H](CC(C)C)C(=O)N[C@H](Cc1c[nH]c2ccccc12)C(=O)N[C@H](CCCCN)C(=O)N[C@H](CCCCN)C(=O)N[C@H](CC(C)C)C(=O)N[C@H](CCCCN)C(=O)N[C@H](CCCCN)C(=O)N[C@@H](C(=O)N[C@@H](C(=O)N[C@H](C)C(=O)N[C@H](CCCCN)C(N)=O)[C@H](C)CC)[C@H](C)CC (H-G[dI][dL][dS][dS][dL][dW][dK][dK][dL][dK][dK][dI][dI][dA][dK]-NH2)"
result = 0.73

[[record]]
molecule = "CC[C@@H](C)[C@@H](NC(=O)CN)C(=O)N[C@H](CC(C)C)C(=O)N[C@H](CO)C(=O)N[C@H](CO)C(=O)N[C@H](CC(C)C)C(=O)N[C@H](CC(C)C)C(=O)N[C@H](CCCCN)C(=O)N[C@H](CCCCN)C(=O)N[C@H](CC(C)C)C(=O)N[C@H](CCCCN)C(=O)N[C@H](CCCCN)C(=O)N[C@@H](C(=O)N[C@@H](C(=O)N[C@H](C)C(=O)N[C@H](CCCCN)C(N)=O)[C@H](C)CC)[C@H](C)CC (H-G[dI][dL][dS][dS][dL][dL][dK][dK][dL][dK][dK][dI][dI][dA][dK]-NH2)"
result = 0.63


# batch size: 2; output fractional inhibitory concentration index (FICI) per entry
1. CC[C@@H](C)[C@@H](NC(=O)CN)C(=O)N[C@H](CCSC)C(=O)N[C@H](CO)C(=O)N[C@H](CO)C(=O)N[C@H](CC(C)C)C(=O)N[C@H](CCSC)C(=O)N[C@H](CCCCN)C(=O)N[C@H](CCCCN)C(=O)N[C@H](CC(C)C)C(=O)N[C@H](CCCCN)C(=O)N[C@H](CCCCN)C(=O)N[C@@H](C(=O)N[C@@H](C(=O)N[C@H](C)C(=O)N[C@H](CCCCN)C(N)=O)[C@H](C)CC)[C@H](C)CC (H-G[dI][dM][dS][dS][dL][dM][dK][dK][dL][dK][dK][dI][dI][dA][dK]-NH2)
2. CCCCC(NC(=O)[C@H](CC(C)C)NC(=O)[C@H](CO)NC(=O)[C@H](CO)NC(=O)C(CCCC)NC(=O)[C@@H](NC(=O)CN)[C@@H](C)CC)C(=O)N[C@@H](CCCCN)C(=O)N[C@@H](CCCCN)C(=O)N[C@@H](CC(C)C)C(=O)N[C@@H](CCCCN)C(=O)N[C@@H](CCCCN)C(=O)N[C@H](C(=O)N[C@H](C(=O)N[C@@H](C)C(N)=O)[C@@H](C)CC)[C@@H](C)CC (some centres undefined) (H-GI[ξNle]SSL[ξNle]KKLKKIIA-NH2)

[0.54, 0.55]

* * *

Record form. Attribute: MIC. Fill in for each entry.
- System: Pseudomonas aeruginosa
- MEASUREMENT_PROTOCOL: Antimicrobial activity against Pseudomonas aeruginosa clinical isolates assessed as reduction in bacterial growth after 20 hrs by […]
- Assay type: functional
Non-standard residues stand in square brackets, D forms with d. Residues, ends and D or L forms follow the SMILES beside them. ξ: configuration not given here. ξNle = CCCCC(N)C(=O)O
One number for each entry, in µM.

Some solved cases for reference:
[[record]]
compound = "CO[C@H]1/C=C/O[C@@]2(C)Oc3c(C)c(O)c4c(O)c(c(/C=N/N5CCN(C)CC5)c(O)c4c3C2=O)NC(=O)/C(C)=C\\C=C\\[C@H](C)[C@H](O)[C@@H](C)[C@@H](O)[C@@H](C)[C@H](OC(C)=O)[C@@H]1C"
observable = "MIC"
endpoint_unit = "µM"
measured_number = 19

[[record]]
compound = "CN(C)[C@@H]1C(O)=C(C(N)=O)C(=O)[C@@]2(O)C(O)=C3C(=O)c4c(O)cccc4[C@@](C)(O)[C@H]3C[C@@H]12"
observable = "MIC"
endpoint_unit = "µM"
measured_number = 70


# batch size: 2; output MIC per entry
1. CC[C@@H](C)[C@@H](NC(=O)CN)C(=O)N[C@H](CC(C)C)C(=O)N[C@H](CO)C(=O)N[C@H](CO)C(=O)N[C@H](CC(C)C)C(=O)N[C@H](CC(C)C)C(=O)N[C@H](CCCCN)C(=O)N[C@H](CCCCN)C(=O)N[C@H](CC(C)C)C(=O)N[C@H](CCCCN)C(=O)N[C@H](CCCCN)C(=O)N[C@@H](C(=O)N[C@@H](C(=O)N[C@H](C)C(=O)N[C@H](CCCCN)C(N)=O)[C@H](C)CC)[C@H](C)CC (H-G[dI][dL][dS][dS][dL][dL][dK][dK][dL][dK][dK][dI][dI][dA][dK]-NH2)
2. CCCCC(NC(=O)[C@H](CC(C)C)NC(=O)[C@H](CO)NC(=O)[C@H](CO)NC(=O)C(CCCC)NC(=O)[C@@H](NC(=O)CN)[C@@H](C)CC)C(=O)N[C@@H](CCCCN)C(=O)N[C@@H](CCCCN)C(=O)N[C@@H](CC(C)C)C(=O)N[C@@H](CCCCN)C(=O)N[C@@H](CCCCN)C(=O)N[C@H](C(=O)N[C@H](C(=O)N[C@@H](C)C(N)=O)[C@@H](C)CC)[C@@H](C)CC (stereo partly specified) (H-GI[ξNle]SSL[ξNle]KKLKKIIA-NH2)

[9.7, 7.9]

Fill in the blank: the reported MIC of CC[C@@H](C)[C@@H](NC(=O)CN)C(=O)N[C@H](CC(C)C)C(=O)N[C@H](CO)C(=O)N[C@H](CO)C(=O)N[C@H](CC(C)C)C(=O)N[C@H](Cc1c[nH]c2ccccc12)C(=O)N[C@H](CCCCN)C(=O)N[C@H](CCCCN)C(=O)N[C@H](CC(C)C)C(=O)N[C@H](CCCCN)C(=O)N[C@H](CCCCN)C(=O)N[C@@H](C(=O)N[C@@H](C(=O)N[C@H](C)C(=O)N[C@H](CCCCN)C(N)=O)[C@H](C)CC)[C@H](C)CC (H-G[dI][dL][dS][dS][dL][dW][dK][dK][dL][dK][dK][dI][dI][dA][dK]-NH2) is ____.
8.8
